Experiment: Solubility of the compound in water
Type: physicochemical

- inputSmiles: "COCCCN1CCC(c2nnc(-c3nn(C(C)C)c4ccccc34)o2)CC1.O=C(O)C(=O)O"
  unitAbbrev: "mg/mL"
  solubility: 17.1

----------
Overview of recorded metabolised at 0.5 h for various molecules
Experiment: in vitro
Conditions: human, liver microsomes

- inputSmiles: "CC(C)n1nc(-c2nnc(C3CCN(CC4CC4)CC3)o2)c2ccccc21"
  unitAbbrev: "%"
  metabolised at 0.5 h: 43.6
- inputSmiles: "CC(C)n1nc(-c2nnc(C3CCN(CC4CCC4)CC3)o2)c2ccccc21"
  unitAbbrev: "%"
  metabolised at 0.5 h: 62.5
- inputSmiles: "CC(C)N1CCC(c2nnc(-c3nn(C(C)C)c4ccccc34)o2)CC1"
  unitAbbrev: "%"
  metabolised at 0.5 h: 15.3
- inputSmiles: "COCCCN1CCC(c2nnc(-c3nn(C(C)C)c4ccccc34)o2)CC1.O=C(O)C(=O)O"
  unitAbbrev: "%"
  metabolised at 0.5 h: 26.2
